- Tested on: Yap1 mRNA
- procedure_text: Antisense inhibition of human Yap1 in A-431 cells by cEt gapmers, single dose (Example 1, RTS4814)
- Format: cell-based
- applied_conditions: Table 1; A-431 cells, free uptake, 2,000 nM, approximately 48 hours, RTS4814; Yap1 mRNA relative to untreated control cells
Strand notation (5' to 3'): a small letter for the sugar, then the base; units joined by * are phosphorothioate-linked, units joined directly phosphodiester-linked; [ ] holds rarer units or linkages, { } end groups; capitals alone tell only the bases. k = constrained ethyl (cEt); [5mC] = 5-methylcytosine; d = 2'-deoxy (DNA)
Consider the following substances; for each one, report its YAP1 (% UTC).
The figure you give is taken to be in % UTC; do not add the unit.

Recall the recorded YAP1 (% UTC) for 715589 (k[5mC]*k[5mC]*kA*dG*d[5mC]*dA*dG*d[5mC]*dT*dA*dA*d[5mC]*dA*kG*k[5mC]*kT; antisense) [Compound 715589] with Yap1 mRNA and state it.
107

Please state recorded YAP1 (% UTC) (tested on Yap1 mRNA) of 715445 (antisense k[5mC]*kA*kT*d[5mC]*d[5mC]*dT*dG*d[5mC]*dT*d[5mC]*d[5mC]*dA*dG*kT*kG*kT) [Compound 715445]
87

Hi! What's the reported YAP1 (% UTC) for 715436 (antisense kT*kG*kG*d[5mC]*dA*dA*dA*dA*d[5mC]*dG*dA*dG*dG*kG*kT*k[5mC]) [Compound 715436] on Yap1 mRNA?
126

Give recorded YAP1 (% UTC) with Yap1 mRNA for the following substance: 715400 (k[5mC]*kT*k[5mC]*d[5mC]*dG*dA*dG*dT*d[5mC]*d[5mC]*d[5mC]*d[5mC]*dG*k[5mC]*kG*kG; antisense) [Compound 715400]
107

API: value(readout= YAP1 (% UTC), system= Yap1 mRNA, query= 715415 (k[5mC]*kG*kA*dA*d[5mC]*dA*dT*dG*d[5mC]*dT*dG*dT*dG*kG*kA*kG; antisense) [Compound 715415] )
24

Param readout = YAP1 (% UTC); param system = Yap1 mRNA; param query = 715490 (antisense k[5mC]*k[5mC]*kA*dA*d[5mC]*dT*dA*dT*dT*dA*d[5mC]*dT*dT*k[5mC]*kA*kT) [Compound 715490] ; response: value
38
